These measurements were taken from ChEMBL document CHEMBL1155883.

protocolDetails: Cytotoxicity against human MT4 cells by MTT assay
Type: cell-based
The entries below are paired with their reported CC50.

For orientation, consider the following solved cases.
compound: CCc1c(Cc2c(F)cccc2Cl)nc(SCC(=O)c2ccc(OC)cc2)[nH]c1=O
CC50: > 11 µM

compound: O=c1cc(Cc2c(F)cccc2F)nc(Sc2ccccc2)[nH]1
CC50: > 76 µM

compound: COc1ccc(CSc2nc(Cc3c(Cl)cccc3Cl)c(C)c(=O)[nH]2)cc1
CC50: 32 µM

compound: COc1ccc(C(=O)CSc2nc(Cc3c(F)cccc3Cl)cc(=O)[nH]2)cc1
CC50: > 12 µM

compound: CC(C)Sc1nc(Cc2c(F)cccc2F)cc(=O)[nH]1
CC50: > 84 µM

Quick one: CC50 for O=C(CSc1nc(Cc2c(Cl)cccc2Cl)cc(=O)[nH]1)c1ccc(F)cc1 ?
> 59 µM
